All figures here come from patent US12246010B2.

Test: Lung concentration after nebulized whole body exposure of mice
Assay type: in vivo, bcat-Ex3 mice
Details: male, bcat-Ex3, mouse, lung, inhaled, Nebulizer (ultrasonic eRapid, Altera), 5 daily doses on Days 1-5, read-out: Lung Concentration (ng/mL)
value.kind: concentration at 5 day (ng/mL)
The figure you give is taken to be in ng/mL; do not add the unit.

Q) For the molecule shown here, C[C@@H]1C[C@H](C)CN(S(=O)(=O)c2ccc3c(c2)C(=NO)c2cc(S(=O)(=O)N4C[C@H](C)C[C@H](C)C4)ccc2C3=NO)C1 , give the reported concentration at 5 day.
A) 4770

----------
Test: Pharmacokinetics after slow intravenous bolus in female Sprague-Dawley rats
Assay type: in vivo
Conditions: female, Sprague-Dawley, plasma; rat, 10 mg/kg slow intravenous bolus, back extrapolated
value.kind: C0 (µg/mL)
The figure you give is taken to be in µg/mL; do not add the unit.

Q) For the compound shown here, C[C@@H]1C[C@H](C)CN(S(=O)(=O)c2ccc3c(c2)C(=NO)c2cc(S(=O)(=O)N4C[C@H](C)C[C@H](C)C4)ccc2C3=NO)C1 [BC2059, tegavivint] , give the reported C0.
A) 62.2
